# test_system: the molecule itself
# protocol_notes: self-association of the chimeric protein; size exclusion HPLC
Ends that are not written are not given here.

protein	binding result
LMSLEKKLEELTQTLMQLQNELSMLKNELAQ (other, not shown: large carriers, also: domain of chimeric fusion protein, fusion partner and linker not given here, also called CREB-LL) [chimeric fusion protein with the CREB-Pa-LL domain]	binds
LMSIEKKLEEITQTLMQIQNELSMIKNELAQ (other, not shown: large carriers, also: chimeric fusion protein, fusion partner and linker not given here, also called CREB-LI) [chimeric fusion protein with the CREB-Pa-LI domain]	binds
IMSLEKKIEELTQTIMQLQNEISMLKNEIAQ (other, not shown: large carriers, also: domain of chimeric fusion protein, fusion partner and linker not given here, also called CREB-IL) [chimeric fusion protein with the CREB-Pa-IL domain]	binds
